Entry source: the supplement of paper PMC11616607

Test system: OVCAR4
Assay: drug sensitivity score (DSS) from 5-point dose-response viability curve (DSS (area-under-curve based score)); higher = more sensitive (stronger growth inhibition or killing); extreme values may be limits of the assay
Conditions: exposure time: 72 h; concentration range: 5 concentrations over 10,000-fold range
measure: drug sensitivity score
Could you keep your reply to the number by itself?

Examples from the recorded data:
O=C(c1cc(Cc2n[nH]c(=O)c3ccccc23)ccc1F)N1CCN(C(=O)C2CC2)CC1 [Olaparib] = 1.9
CCC/C=C/C=C/C(=O)O[C@H]1/C(=C/C(=O)OC)C[C@H]2C[C@H]([C@@H](C)O)OC(=O)C[C@H](O)C[C@@H]3C[C@H](OC(C)=O)C(C)(C)[C@](O)(C[C@@H]4C/C(=C/C(=O)OC)C[C@H](/C=C/C(C)(C)[C@]1(O)O2)O4)O3 [Bryostatin 1] = 1.1
C#Cc1cccc(Nc2ncnc3cc4c(cc23)OCCOCCOCCO4)c1 [Icotinib] = 1.7
CCCCCCCCCCCCCCCCOP(=O)([O-])OCC[N+](C)(C)C [Miltefosine] = 3.5
COc1ccc(S(=O)(=O)Nc2cccnc2Nc2ccc(O)cc2)cc1 [ABT-751] = 5

Task item: So what does the record say about drug sensitivity score for CCC(C)n1ncn(-c2ccc(N3CCN(c4ccc(OCC5COC(Cn6cncn6)(c6ccc(Cl)cc6Cl)O5)cc4)CC3)cc2)c1=O (stereo not given) [Itraconazole] ?
Reply: 2.1

Task item: Fill in the blank: the reported drug sensitivity score of CN(C)c1cc2c(cc1Sc1nc3c(N)nccc3n1CCNCC(C)(C)C)OCO2 [CUDC-305] is ____.
Reply: 8.5

Task item: Given the entry CN[C@@H](C)C(=O)N[C@H](C(=O)N1CCC[C@H]1c1nc(C(=O)c2ccc(F)cc2)cs1)C1CCCCC1 [NVP-LCL161] , report its measured drug sensitivity score.
Reply: 16.4

Task item: Would you mind telling me what drug sensitivity score value was observed for CON(C)C(=O)N1N=C(c2cc(F)ccc2F)S[C@@]1(CCCN)c1ccccc1 [Filanesib] ?
Reply: 6.8

Task item: Quick one: drug sensitivity score for CNc1nc(-c2ccc3c(N)n[nH]c3c2)cc(N2C[C@@H](C(=O)NC3CCCCC3)CC[C@H]2C)n1 ?
Reply: 0
